- System: 8505C (Thyroid Gland Carcinoma)
- testDetails: combination Emax (second highest fraction inhibited in the dose matrix, 72 h); higher = more inhibition; extreme values may be limits of the assay
experimentalReadout: combination Emax
Returns: the value as a bare number; no unit string appended.

compound: COc1cc2ncnc(Nc3ccc(F)c(Cl)c3)c2cc1OCCCN1CCOCC1 [Gefitinib] + CC(C)n1c(=O)n(C)c2cnc3cc(F)c(-c4ccc(OCCCN5CCCCC5)nc4)cc3c21 [AZD1390] (first compound max 10 µM, 7x7, partner max 0.3 µM)
measured: 0.0956

Pending compound:
Query: Field request: combination Emax | item: Cc1cc2ncnn2cc1Nc1ncc2c(n1)n(C1CCOCC1)c(=O)n2C [AZD7648] + C[C@@H]1COCCN1C2=NC(=NC(=C2)C3(CC3)[S@](=N)(=O)C)C4=C5C=CNC5=NC=C4 [AZD6738] (first compound max 10 µM, 7x7, partner max 10 µM)
Response: 0.361

----------
Each entry below carries its recorded Bliss excess.
- Test system: NCI-H929 (Plasma Cell Myeloma);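 further: after 72 h of two-drug dosing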
- testDetails: Bliss excess, mean over the matrix (fraction); higher = more synergy
Response field accepts a number only; no unit should be typed.

molecule: CN(CCO)CC[C@H](CSc1ccccc1)Nc1ccc(S(=O)(=O)NC(=O)c2ccc(N3CCC([C@@H](O)c4ccccc4-c4ccc(Cl)cc4)CC3)cc2)cc1S(=O)(=O)C(F)(F)F [AZD4320] + Cn1cnc2c(F)c(Nc3ccc(Br)cc3Cl)c(C(=O)NOCCO)cc21 [Selumetinib] (first compound max 1 µM, 7x7, partner max 3 µM)
assayedSystem: NCI-H929 (Plasma Cell Myeloma);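 further: after 72 h of two-drug dosing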
experimentalReadout: Bliss excess
measured: 0.0597
//
molecule: CCN(CCO)CCCOc1ccc2c(Nc3cc(CC(=O)Nc4cccc(F)c4)[nH]n3)ncnc2c1 [AZD2811] + C=CCn1c(=O)c2cnc(Nc3ccc(N4CCN(C)CC4)cc3)nc2n1-c1cccc(C(C)(C)O)n1 [AZD1775] (first compound max 1 µM, partner max 1 µM)
assayedSystem: NCI-H929 (Plasma Cell Myeloma);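 further: after 72 h of two-drug dosing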
experimentalReadout: Bliss excess
measured: -0.0671
//
molecule: COc1cccc(OCCCN)c1-c1cc(Nc2cnc(C#N)cn2)n[nH]1 [Prexasertib] + C=CCn1c(=O)c2cnc(Nc3ccc(N4CCN(C)CC4)cc3)nc2n1-c1cccc(C(C)(C)O)n1 [AZD1775] (first compound max 1 µM, partner max 1 µM)
assayedSystem: NCI-H929 (Plasma Cell Myeloma);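 further: after 72 h of two-drug dosing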
experimentalReadout: Bliss excess
measured: 0.15

Query: Param readout = Bliss excess; param system = NCI-H929 (Plasma Cell Myeloma); param query = NC1(C(=O)N[C@@H](CCO)c2ccc(Cl)cc2)CCN(c2ncnc3[nH]ccc23)CC1 [Capivasertib] + Cn1cnc2c(F)c(Nc3ccc(Br)cc3Cl)c(C(=O)NOCCO)cc21 [Selumetinib] (first compound max 10 µM, 7x7, partner max 10 µM) ; response: value;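 further: after 72 h of two-drug dosing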
Response: 0.0041

Query: I'm curious: which Bliss excess was measured for Cc1c2c(nn1C)CSCc1cc(n(C)n1)CSc1cc(c3ccccc3c1)OCCCc1c(C(=O)O)n(C)c3c-2c(Cl)ccc13 [AZD5991] + Cn1cnc2c(F)c(Nc3ccc(Br)cc3Cl)c(C(=O)NOCCO)cc21 [Selumetinib] (first compound max 1 µM, 7x7, partner max 3 µM) tested on NCI-H929 (Plasma Cell Myeloma)?;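 further: after 72 h of two-drug dosing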
Response: 0.0275
